- subject-of-test: Epidermal growth factor receptor (Homo sapiens)
- Sequence (P00533 whole entry): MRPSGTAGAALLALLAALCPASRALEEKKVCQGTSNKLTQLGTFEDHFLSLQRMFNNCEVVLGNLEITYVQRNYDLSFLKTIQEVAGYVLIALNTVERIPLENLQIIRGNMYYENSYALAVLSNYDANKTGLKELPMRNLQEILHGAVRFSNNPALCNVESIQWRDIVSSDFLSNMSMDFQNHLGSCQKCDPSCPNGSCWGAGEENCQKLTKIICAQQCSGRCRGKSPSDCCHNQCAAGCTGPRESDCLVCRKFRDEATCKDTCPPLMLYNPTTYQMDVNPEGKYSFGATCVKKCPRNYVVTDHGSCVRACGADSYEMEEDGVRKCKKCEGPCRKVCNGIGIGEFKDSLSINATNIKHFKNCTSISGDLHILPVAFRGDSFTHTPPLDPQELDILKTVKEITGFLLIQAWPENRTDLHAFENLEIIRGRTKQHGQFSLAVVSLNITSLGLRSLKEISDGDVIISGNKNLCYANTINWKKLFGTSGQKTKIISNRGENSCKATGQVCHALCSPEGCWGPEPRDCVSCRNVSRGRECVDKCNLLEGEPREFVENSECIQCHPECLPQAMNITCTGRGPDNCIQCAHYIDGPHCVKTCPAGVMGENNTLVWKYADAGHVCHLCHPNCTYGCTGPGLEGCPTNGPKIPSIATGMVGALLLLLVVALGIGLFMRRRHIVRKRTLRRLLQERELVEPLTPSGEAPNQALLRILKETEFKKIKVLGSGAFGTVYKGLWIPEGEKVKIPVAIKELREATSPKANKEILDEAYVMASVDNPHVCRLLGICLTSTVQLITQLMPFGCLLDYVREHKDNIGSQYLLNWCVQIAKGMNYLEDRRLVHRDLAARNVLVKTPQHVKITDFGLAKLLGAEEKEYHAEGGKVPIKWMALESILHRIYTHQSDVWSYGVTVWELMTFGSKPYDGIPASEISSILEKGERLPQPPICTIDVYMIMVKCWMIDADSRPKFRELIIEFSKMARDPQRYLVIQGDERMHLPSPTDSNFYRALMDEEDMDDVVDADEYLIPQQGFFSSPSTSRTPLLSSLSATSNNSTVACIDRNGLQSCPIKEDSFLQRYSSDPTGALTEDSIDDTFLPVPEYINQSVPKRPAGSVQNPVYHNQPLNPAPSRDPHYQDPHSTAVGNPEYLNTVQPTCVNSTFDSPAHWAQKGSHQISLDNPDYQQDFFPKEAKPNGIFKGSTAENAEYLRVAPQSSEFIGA
- test: Inhibition of EGFR in human HeLa cells lysate pre incubated for 15 mins followed by ATP acyl phosphate probe addition and measured after 10 mins by LC-MS/MS analysis
- Assay type: subcellular
pIC50: −log10 of the molar value.
experimental-endpoint: pIC50

*Q* Please give the documented pIC50 of CCOc1cc(N2CCC(O)CC2)ccc1Nc1ncc2c(n1)N(C)c1ccccc1C(=O)N2C
*A* < 4.30

----------
- subject-of-test: Phosphatidylinositol 4-phosphate 3-kinase C2 domain-containing subunit beta (Homo sapiens)
- Sequence (O00750 whole entry, the tested form may be a part): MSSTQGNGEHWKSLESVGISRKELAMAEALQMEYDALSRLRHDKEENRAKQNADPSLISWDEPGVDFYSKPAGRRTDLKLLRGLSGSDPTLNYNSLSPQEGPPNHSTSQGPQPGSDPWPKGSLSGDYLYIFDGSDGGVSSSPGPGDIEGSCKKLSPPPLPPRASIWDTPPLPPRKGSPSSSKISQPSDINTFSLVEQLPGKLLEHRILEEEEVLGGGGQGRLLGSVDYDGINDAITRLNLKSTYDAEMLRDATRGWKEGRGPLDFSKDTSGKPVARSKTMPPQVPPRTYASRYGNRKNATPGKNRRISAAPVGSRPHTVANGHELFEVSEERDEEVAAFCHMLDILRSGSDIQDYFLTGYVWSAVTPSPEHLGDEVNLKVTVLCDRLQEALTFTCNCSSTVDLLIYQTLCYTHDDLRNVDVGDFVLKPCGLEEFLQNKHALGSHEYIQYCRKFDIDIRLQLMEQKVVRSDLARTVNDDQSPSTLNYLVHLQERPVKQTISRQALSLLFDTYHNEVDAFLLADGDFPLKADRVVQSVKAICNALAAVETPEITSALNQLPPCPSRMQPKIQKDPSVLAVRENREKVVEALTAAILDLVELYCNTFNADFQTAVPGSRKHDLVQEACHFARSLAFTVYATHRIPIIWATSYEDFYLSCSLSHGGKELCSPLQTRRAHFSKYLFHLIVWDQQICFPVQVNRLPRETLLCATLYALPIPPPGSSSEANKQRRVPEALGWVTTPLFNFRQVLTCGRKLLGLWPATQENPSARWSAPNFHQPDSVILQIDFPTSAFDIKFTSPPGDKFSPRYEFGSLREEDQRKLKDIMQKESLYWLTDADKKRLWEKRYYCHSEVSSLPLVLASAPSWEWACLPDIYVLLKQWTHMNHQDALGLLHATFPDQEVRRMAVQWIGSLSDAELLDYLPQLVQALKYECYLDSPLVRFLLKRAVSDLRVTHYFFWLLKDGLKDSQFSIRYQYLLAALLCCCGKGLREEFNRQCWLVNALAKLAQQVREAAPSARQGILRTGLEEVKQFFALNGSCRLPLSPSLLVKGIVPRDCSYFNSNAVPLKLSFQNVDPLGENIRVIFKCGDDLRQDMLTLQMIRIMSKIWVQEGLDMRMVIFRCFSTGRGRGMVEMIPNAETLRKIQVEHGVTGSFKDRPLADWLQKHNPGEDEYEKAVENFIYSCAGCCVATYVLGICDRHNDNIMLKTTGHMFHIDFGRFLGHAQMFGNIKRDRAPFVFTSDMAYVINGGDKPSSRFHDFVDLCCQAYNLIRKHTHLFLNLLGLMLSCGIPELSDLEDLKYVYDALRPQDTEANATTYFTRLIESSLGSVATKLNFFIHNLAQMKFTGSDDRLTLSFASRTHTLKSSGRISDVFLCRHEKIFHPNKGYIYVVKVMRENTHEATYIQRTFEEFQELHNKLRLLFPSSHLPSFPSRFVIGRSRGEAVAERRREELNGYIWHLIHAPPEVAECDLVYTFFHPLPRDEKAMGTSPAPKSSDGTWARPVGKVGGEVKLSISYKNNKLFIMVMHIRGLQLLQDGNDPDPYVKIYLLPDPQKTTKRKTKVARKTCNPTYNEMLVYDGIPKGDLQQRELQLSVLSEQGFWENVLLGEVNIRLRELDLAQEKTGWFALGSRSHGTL
- test: Inhibition of PIK3C2B in human HeLa cells lysate pre incubated for 15 mins followed by ATP acyl phosphate probe addition and measured after 10 mins by LC-MS/MS analysis
experimental-endpoint: IC50

*Q* Name the value of IC50 reported for CCOc1cc(N2CCC(O)CC2)ccc1Nc1ncc2c(n1)N(C)c1ccccc1C(=O)N2C when tested on Phosphatidylinositol 4-phosphate 3-kinase C2 domain-containing subunit beta (Homo sapiens).
*A* > 50 µM
